Tested on: T. cruzi-infected H9C2 cardiomyocytes, high-content imaging
Assay: intracellular T. cruzi amastigote inhibition, imaging, H9C2 host cardiomyocytes, host toxicity (AID 1159565);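 further: infected cells incubated 72 h after plating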
Settings: measured here: amastigotes per cell
Threshold 1000 nM. IC50 below it: met. IC50 at it or above: not met.

Illustrative cases are given below, each with its answer.
>>> discrete_label("O=C(NCCc1csc(-c2ccc(F)cc2)n1)c1ccco1")
"not met"
>>> discrete_label("CC(C(=O)Nc1ccccc1F)N(C)CC(=O)Nc1cccc2ccccc12 (stereo unspecified)")
"met"
>>> discrete_label("Cc1cc(C#N)c([N+](=O)[O-])cc1Br")
"met"
>>> discrete_label("O=C(NCCc1ccccn1)C(c1cn[nH]c1)N1CCN(c2ccc(Cl)c(Cl)c2)CC1 (stereo unspecified)")
"met"
>>> discrete_label("O=C(NNC(=O)c1ccccn1)c1ccc(-c2ccccc2)cc1")
"not met"

Inquiry: Dear reviewer, please state whether CC(Cn1ccnc1)NC(=O)C1CC1c1cccc(Cl)c1Cl (stereo unspecified) has IC50 strictly beneath 1000 nM.
Reply text: met

Inquiry: Hello, is IC50 of the following compound strictly smaller than 1000 nM? `Cc1ncsc1CNc1cnc(-c2ccc3c(c2)OCCO3)c(-c2cnn(C)c2)c1`
Reply text: not met

Inquiry: Please check: IC50 for `CNc1nc(C)nc(N2CCc3cc(C(=O)NCc4ccc(-c5ccn[nH]5)cc4Cl)ccc32)n1` , strictly under 1000 nM or not?
Reply text: not met

Inquiry: Threshold test, IC50 < 1000 nM: `O=C(NCC1CCCCC1)c1cnns1`
Reply text: not met
